Molecular target: A disintegrin and metalloproteinase with thrombospondin motifs 5 (Homo sapiens, UniProt Q9UNA0)
Sequence (Q9UNA0 whole entry): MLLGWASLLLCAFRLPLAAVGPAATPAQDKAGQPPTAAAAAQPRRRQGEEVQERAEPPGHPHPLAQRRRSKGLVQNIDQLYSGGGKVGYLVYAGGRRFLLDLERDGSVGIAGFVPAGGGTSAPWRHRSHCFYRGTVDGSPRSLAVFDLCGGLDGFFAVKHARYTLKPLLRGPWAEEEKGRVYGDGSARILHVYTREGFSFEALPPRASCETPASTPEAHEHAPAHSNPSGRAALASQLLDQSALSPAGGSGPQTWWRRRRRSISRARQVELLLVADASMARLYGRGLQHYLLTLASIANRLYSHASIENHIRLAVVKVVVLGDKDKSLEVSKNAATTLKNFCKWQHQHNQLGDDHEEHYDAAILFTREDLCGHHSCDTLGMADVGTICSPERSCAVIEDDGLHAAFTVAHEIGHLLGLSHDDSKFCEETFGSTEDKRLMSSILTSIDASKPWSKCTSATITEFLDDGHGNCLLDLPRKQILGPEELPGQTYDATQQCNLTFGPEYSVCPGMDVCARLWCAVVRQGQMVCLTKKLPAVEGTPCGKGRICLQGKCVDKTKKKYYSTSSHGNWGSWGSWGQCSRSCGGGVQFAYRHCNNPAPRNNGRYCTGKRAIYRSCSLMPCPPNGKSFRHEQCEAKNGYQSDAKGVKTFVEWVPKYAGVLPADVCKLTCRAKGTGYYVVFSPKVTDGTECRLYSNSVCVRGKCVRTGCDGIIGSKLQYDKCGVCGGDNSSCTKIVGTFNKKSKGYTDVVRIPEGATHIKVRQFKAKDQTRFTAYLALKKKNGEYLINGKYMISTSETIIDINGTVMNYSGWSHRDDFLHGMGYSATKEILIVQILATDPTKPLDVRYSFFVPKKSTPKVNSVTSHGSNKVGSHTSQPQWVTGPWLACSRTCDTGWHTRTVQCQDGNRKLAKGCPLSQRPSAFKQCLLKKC
Provide the recorded IC50 for the entries that follow.

Memo: `CC(C)(C)c1ccc(Oc2cccc(/C=C3/NC(=O)NC3=O)c2)cc1` , reported IC50: > 67 µM

Memo: `CCN1C(=O)/C(=C\c2ccc(OCc3ccccc3)c(OCc3ccccc3)c2)SC1=S` , reported IC50: > 67 µM

Memo: `O=C(O)CN1C(=O)/C(=C\c2cccc(Oc3ccc(Cl)c(Cl)c3)c2)SC1=S` , reported IC50: 11.1 µM

Memo: `CC(C)(C)c1ccc(Oc2cccc(/C=C3/SC(=S)NC3=O)c2)cc1` , reported IC50: 1.7 µM

Memo: `Cc1ccc(Oc2cccc(/C=C3/SC(=S)NC3=O)c2)cc1` , reported IC50: 14.8 µM

Memo: `O=C(O)CN1C(=O)/C(=C\c2ccc(OCc3ccccc3)c(OCc3ccccc3)c2)SC1=S` , reported IC50: 6.7 µM

Memo: `O=C1/C(=C\c2ccc(OCc3ccccc3)c(OCc3ccccc3)c2)SC(=S)N1CCc1ccccc1` , reported IC50: > 67 µM

Memo: `O=C1NC(=O)/C(=C\c2cccc(Oc3ccc(Cl)c(Cl)c3)c2)S1` , reported IC50: 10 µM

Memo: `COc1ccc(Oc2cccc(/C=C3/SC(=S)NC3=O)c2)cc1` , reported IC50: 16.2 µM

Memo: `CN1C(=O)/C(=C\c2ccc(OCc3ccccc3)c(OCc3ccccc3)c2)SC1=S` , reported IC50: > 67 µM

Memo: `O=C1NC(=S)S/C1=C/c1cccc(OCc2ccccc2)c1` , reported IC50: 20.1 µM

Memo: O=C(O)C(c1ccccc1)N1C(=O)/C(=C\c2ccc(OCc3ccccc3)c(OCc3ccccc3)c2)SC1=S (stereo not given) , reported IC50: 0.9 µM

Memo: `O=C1NC(=S)S/C1=C/c1cccc(Oc2ccc(Cl)c(Cl)c2)c1` , reported IC50: 3.2 µM

Memo: `O=C1NC(=S)S/C1=C/c1cccc(Oc2ccc(C(F)(F)F)cc2)c1` , reported IC50: 5.3 µM

Memo: `O=C(O)CCN1C(=O)/C(=C\c2ccc(OCc3ccccc3)c(OCc3ccccc3)c2)SC1=S` , reported IC50: 5.3 µM

Memo: `CC(C)[C@H](C(=O)O)N1C(=O)/C(=C\c2ccc(OCc3ccccc3)c(OCc3ccccc3)c2)SC1=S` , reported IC50: 1.1 µM

Memo: `COc1cc(/C=C2/SC(=S)NC2=O)ccc1OCc1ccc(Cl)cc1` , reported IC50: 3.5 µM

Memo: `O=C1NC(=O)/C(=C\c2cccc(Oc3cc(Cl)cc(Cl)c3)c2)S1` , reported IC50: 9.2 µM

Memo: `O=C(O)[C@@H](Cc1ccccc1)N1C(=O)/C(=C\c2cccc(Oc3ccc(Cl)c(Cl)c3)c2)SC1=S` , reported IC50: 1.6 µM

Memo: `COc1cc(/C=C2/SC(=S)NC2=O)ccc1OCc1ccccc1` , reported IC50: > 22 µM
